B1: TPR 5TU (parent)
chain: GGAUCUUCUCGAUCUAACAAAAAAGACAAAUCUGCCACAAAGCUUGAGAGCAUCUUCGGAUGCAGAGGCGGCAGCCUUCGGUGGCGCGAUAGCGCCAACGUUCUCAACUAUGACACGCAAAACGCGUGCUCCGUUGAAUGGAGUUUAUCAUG

variants of: B1; assay: polymerase ribozyme fitness, log enrichment relative to wild type (log ratio); higher = more active; in vitro selection for triplet polymerase activity
Fewer inactive variants are shown than the library holds.
Would you kindly list polymerase ribozyme fitness (log ratio) for each of these variants?

C8U U9G G70A C76A C87G A89C
≤ -4.2

Dear colleague, could you send me polymerase ribozyme fitness (log ratio) for each of the items below? Thanks.
1. G74A A89C
2. U4G G74A G84U U109A
3. A29C A49U A52C C54A A89C C123A U135G G140C
4. C35A A64C A98U C99U G152U
5. C95A A120G A138G
6. U7C C18G C43G G48A G58C C63U C76G
7. A41U G133U U135A A142G A147U
8. A21G A52U C85U G94U A98U C116U

≤ -4.2
≤ -4.2
≤ -4.2
≤ -4.2
-2.96
≤ -4.2
≤ -4.2
-1.64

Dear colleague, could you send me polymerase ribozyme fitness (log ratio) for each of the items below? Thanks.
1. C8G A29G A60U U77A C93A C123U
2. G46C C54U G94A C99A A142U U151C
3. A16U A22G C57A U135A
4. G48C A60G C76G G94C U104C C131U
5. A22C U144G
6. A52U U82A C93A C131G

1: ≤ -4.2; 2: ≤ -4.2; 3: -3.06; 4: ≤ -4.2; 5: 0.903; 6: ≤ -4.2
